Each recorded value in this set is attributed to ChEMBL document CHEMBL3739282.

tested on: Staphylococcus aureus; assay: Antibacterial activity against Staphylococcus aureus assessed as growth inhibition incubated for 24 hrs at 37 degC by agar well diffusion method; assay type: functional
Exercise: for every item that follows, state its recorded MIC.
# number only, unit µg/mL dropped from output

Look at this molecule and give its reported MIC. c1ccc2[nH]c(-c3nc4ccccc4s3)cc2c1
3.12

Look at this molecule and give its reported MIC. Clc1ccccc1-c1nc2ccccc2s1
12.5

Look at this molecule and give its reported MIC. c1ccc(-c2nc3ccccc3s2)cc1 [2-PHENYLBENZO[D]THIAZOLE]
50

Look at this molecule and give its reported MIC. c1coc(-c2nc3ccccc3s2)c1
50

Look at this molecule and give its reported MIC. Cc1ccccc1-c1nc2ccccc2s1
100

Look at this molecule and give its reported MIC. Oc1ccccc1-c1nc2ccccc2s1
100

Look at this molecule and give its reported MIC. Fc1ccc(-c2nc3ccccc3s2)cc1
6.25

Look at this molecule and give its reported MIC. c1ccc(-c2nc3ccccc3s2)nc1
6.25

Look at this molecule and give its reported MIC. Brc1cccc(-c2nc3ccccc3s2)c1
12.5

Look at this molecule and give its reported MIC. c1csc(-c2nc3ccccc3s2)c1
12.5

Look at this molecule and give its reported MIC. NC[C@H]1O[C@H](O[C@H]2[C@H](O)[C@@H](O[C@H]3O[C@H](CO)[C@@H](O)[C@H](N)[C@H]3O)[C@H](N)C[C@@H]2N)[C@H](N)C[C@@H]1O
1.5
